Provide the recorded protein stability index for the entries that follow.
B1: LARP4 (parent)
chain: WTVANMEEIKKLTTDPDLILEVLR

Variants of: B1
experiment.summary: protein stability index of a GFP-peptide fusion (GPS, HEK-293T) (PSI 1-6); higher = more stable;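 also: lentivirally expressed fusions sorted by FACS into six bins by GFP to DsRed ratio, PSI derived from sequencing read proportions per bin multiplied by bin number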
condition.parameters: c terminus: a fixed tail appended
Lab note: jot the number down without any unit.

Reported protein stability index for K11L : what is it? 2.13

Same again, this time with T2N 2

Same again, this time with R24T 2.5

Same again, this time with M6I 1.63

Same again, this time with M6D 2.79

Same again, this time with E21Y 2.12

Same again, this time with L12I 2.23

Same again, this time with E7S 1.7

Same again, this time with D17R 1.86

Same again, this time with V22N 3.25

Same again, this time with N5E 2.47

Same again, this time with D15T 2

Same again, this time with I9P 2.49

Same again, this time with V3T 2.18

Same again, this time with K10L 2.68

Same again, this time with W1H 2.55

Same again, this time with N5H 1.99

Same again, this time with E8A 1.5

Same again, this time with N5D 2.79

Same again, this time with E21R 1.92

Same again, this time with D15R 1.4

Same again, this time with A4V 1.43

Same again, this time with L23D 4.03

Same again, this time with D15K 2.05

Same again, this time with T2F 1.94

Same again, this time with E8D 2.03

Same again, this time with A4L 1.9

Same again, this time with W1S 2.33

Same again, this time with N5L 2.55

Same again, this time with K11N 2.81

Same again, this time with K10I 1.54

Same again, this time with E8M 1.47

Same again, this time with V22K 3.3

Same again, this time with V22F 2.77

Same again, this time with K10V 2.07

Same again, this time with L23C 3.17

Same again, this time with K11F 2.85

Same again, this time with L12E 3.74

Same again, this time with L20Q 3.64

Same again, this time with E7M 1.2

Same again, this time with T14H 3.88

Same again, this time with M6F 1.69

Same again, this time with V22H 3.48

Same again, this time with V22S 2.56

Same again, this time with W1L 2.14

Same again, this time with T13P 2.24

Same again, this time with I19N 2.91

Same again, this time with K10Y 2.03

Same again, this time with N5A 1.29

Same again, this time with P16Q 1.84

Same again, this time with E8Q 1.68

Same again, this time with D17E 1.79

Same again, this time with V22A 2.79

Same again, this time with T2W 2.11

Same again, this time with I19L 2.12

Same again, this time with T13M 1.87

Same again, this time with E8T 1.7

Same again, this time with L12P 2.26

Same again, this time with I9L 2.16

Same again, this time with I9S 1.85

Same again, this time with T13S 1.39

Same again, this time with E8H 2.89

Same again, this time with E21D 2.31

Same again, this time with D15S 1.53

Same again, this time with K10C 2.02

Same again, this time with V3A 3.11

Same again, this time with M6P 2.03

Same again, this time with A4S 1.9

Same again, this time with T2K 1.87

Same again, this time with A4D 3.25

Same again, this time with T14S 1.91

Same again, this time with V22I 2.14
